Reference source for all entries: PubChem BioAssay AID463173

- Test system: DeltatarO mutant
- experimentalDetails: S. aureus survival, RN4220 and DeltatarO strains – OD600, teichoic acid synthesis inhibitors, primary screen (AID 463173)
- testParameters: S. aureus RN4220 wild type/DeltatarO growth, OD600, 18 h, hits give low values, screened at 18.75 µg/mL (by protocol)
Out of some 52,000 compounds screened, about 4,300 (8.3%) were called active. Shown is part of a subset that was picked to be rich in actives.
Record form. Attribute: survival. Fill in for each entry.
Form entry: value (%) — number only.

Query :: Could you tell me which survival is on file for COCCn1c(COc2ccc(Cl)cc2)nnc1SCC(=O)OC ?
Result :: 96

Query :: Could you tell me which survival is on file for CCOc1ccc(S(=O)(=O)Nc2ccc3c(c2)CCCN3S(=O)(=O)c2ccc(C)cc2)cc1 ?
Result :: 88

Query :: Could you tell me which survival is on file for Cc1ccc(C)c(NC(c2ccccc2)c2nnc(-c3ccccc3F)o2)c1 (configuration not stated) ?
Result :: 4

Query :: Could you tell me which survival is on file for Cc1ccc(Cl)cc1NC(c1ccc(F)cc1)c1nnc(-c2ccccc2)o1 (configuration not stated) ?
Result :: 86

Query :: Could you tell me which survival is on file for COc1ccc(C(=O)N(Cc2ccc(N(C)C)cc2)CC2CCCO2)cc1 (configuration not stated) ?
Result :: 63

Query :: Could you tell me which survival is on file for Cc1cccc(C)c1NC(=O)CN1C(=O)c2ccccc2Sc2ncccc21 ?
Result :: 88

Query :: Could you tell me which survival is on file for O=C(O)c1ccc(N=NSCCO)cc1 ?
Result :: 79

Query :: Could you tell me which survival is on file for O=C(CCS(=O)(=O)c1cc(Br)cc2c1N(C(=O)C1CC1)CC2)NCc1ccccc1Cl ?
Result :: 100

Query :: Could you tell me which survival is on file for COc1cccc(N2CC(NC(=O)COc3ccc4ccccc4c3)CC2=O)c1 (configuration not stated) ?
Result :: 107

Query :: Could you tell me which survival is on file for COc1cccc(N2CC(NC(=O)C3CC3)CC2=O)c1 (configuration not stated) ?
Result :: 105

Query :: Could you tell me which survival is on file for COc1ccc2c(c1)c1c(c(=O)n(-c3cc(Cl)ccc3C)c(=O)n1CC(=O)N1CCCC1)n2C ?
Result :: 83

Query :: Could you tell me which survival is on file for CCOc1ccc(NC(=O)c2oc3ccccc3c2NC(=O)Cc2cccs2)cc1 ?
Result :: 82

Query :: Could you tell me which survival is on file for Cc1ccc(-c2nnc3ccccc3c2C(=O)Nc2ccc(F)cc2)cc1 ?
Result :: 100

Query :: Could you tell me which survival is on file for COc1ccc(OCC(=O)NC2CC(=O)N(c3cccc(OC)c3)C2)cc1 (configuration not stated) ?
Result :: 0

Query :: Could you tell me which survival is on file for O=C(Nc1nnc2n1CCS2)c1ccccc1C(F)(F)F ?
Result :: 93

Query :: Could you tell me which survival is on file for Cc1c(Cl)cccc1NC(=O)c1cc(S(=O)(=O)N2CCCCC2)cn1C ?
Result :: 99

Query :: Could you tell me which survival is on file for Cc1nnc(N(C)C(=O)Cc2ccc3c(c2)OCO3)s1 ?
Result :: 73

Query :: Could you tell me which survival is on file for COc1ccc(NC(c2ccc(F)cc2)c2nnc(-c3ccccc3Cl)o2)cc1Cl (configuration not stated) ?
Result :: 78

Query :: Could you tell me which survival is on file for COc1ccc(-c2onc(C)c2C)cc1S(=O)(=O)NCC1CCN(Cc2cc(C)ccc2C)CC1 ?
Result :: 100

Query :: Could you tell me which survival is on file for COc1cccc(N2CC(NC(=O)C3CCCCC3)CC2=O)c1 (configuration not stated) ?
Result :: 144

Query :: Could you tell me which survival is on file for Cc1cccc(C(=O)NC(c2n[nH]c(=S)n2C)C(C)C)c1 (configuration not stated) ?
Result :: 111

Query :: Could you tell me which survival is on file for COc1ccc(CNC(=O)CN(c2ccccc2)S(=O)(=O)N(C)C)cc1 ?
Result :: 145
